// values below are reported IC50
# Subject of test: normal recombinant Culex pipiens AChE1 (Culex pipiens)
# Sequence (Q86GC8 37-702): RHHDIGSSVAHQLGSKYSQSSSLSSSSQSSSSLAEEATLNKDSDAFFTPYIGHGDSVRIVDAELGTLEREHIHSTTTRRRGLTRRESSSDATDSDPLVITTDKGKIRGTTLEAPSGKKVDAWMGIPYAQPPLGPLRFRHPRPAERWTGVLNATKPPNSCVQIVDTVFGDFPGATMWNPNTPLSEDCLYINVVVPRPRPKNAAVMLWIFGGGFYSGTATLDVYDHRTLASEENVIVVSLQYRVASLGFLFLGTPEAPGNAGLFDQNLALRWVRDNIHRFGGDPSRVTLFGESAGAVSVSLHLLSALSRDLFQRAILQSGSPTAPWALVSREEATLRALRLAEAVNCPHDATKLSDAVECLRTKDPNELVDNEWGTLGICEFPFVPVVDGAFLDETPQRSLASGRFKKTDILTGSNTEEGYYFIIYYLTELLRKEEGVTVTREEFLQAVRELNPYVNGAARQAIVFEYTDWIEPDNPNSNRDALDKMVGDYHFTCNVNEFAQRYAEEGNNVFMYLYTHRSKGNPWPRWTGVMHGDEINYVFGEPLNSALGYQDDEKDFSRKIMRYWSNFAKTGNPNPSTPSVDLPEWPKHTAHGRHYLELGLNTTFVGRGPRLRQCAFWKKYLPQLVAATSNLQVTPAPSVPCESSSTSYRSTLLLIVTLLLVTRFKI
# Protocol summary: Inhibition of normal recombinant AChE1 (lysates of transfected Drosophile S2 cells, Ellman method)
Could you give me the number in µM? Just the number is fine.

Previously resolved entries follow.
compound="Cc1ccc(N2C(=O)NC(=O)C(=Cc3ccc(C)o3)C2=O)cc1 [(11)]" measurement_type=IC50 meas_value=4.5
compound="CCc1ccc(N2C(=O)NC(=O)C(=Cc3ccc(C)o3)C2=O)cc1 [(19)]" measurement_type=IC50 meas_value=1.9
compound="Cc1ccc(C=C2C(=O)NC(=O)N(c3ccc(Cl)cc3)C2=O)o1 [(6)]" measurement_type=IC50 meas_value=70
compound="Cc1ccc(C=C2C(=O)NC(=O)N(c3ccc(Cl)cc3)C2=O)s1 [(15)]" measurement_type=IC50 meas_value=8.7
compound="CN1C(=O)C(=Cc2ccco2)C(=O)N(C)C1=O [(10)]" measurement_type=IC50 meas_value=1190

Lab note: next compound to report on.
Requested read-out: IC50. Entry: Cc1ccc(C=C2C(=O)NC(=O)N(c3ccc(F)cc3)C2=O)s1 [(16)]
17.1
